- TARGET OR TEST SYSTEM: MTH1 (Homo sapiens)
- ASSAY OVERVIEW: MTH1 enzymatic assay (malachite green, coupled to pyrophosphatase)
- Format: biochemical
- TEST CONTEXT: dGTP 100 μM, MTH1 6 nM; 96- or 384-well format; read-out: IC50
Please provide measured IC50 for the entries that follow.

Lab note: need IC50 with MTH1 (Homo sapiens) for entry Cc1c(Cl)cccc1-c1cc(NCCF)nc(N)n1 , please look it up.
< 200 nM

Lab note: need IC50 with MTH1 (Homo sapiens) for entry CNc1cc(-c2cccc(C(F)(F)F)c2)nc(N)n1 , please look it up.
< 200 nM

Lab note: need IC50 with MTH1 (Homo sapiens) for entry CNc1cc(-c2cc(Cl)c(C)cc2F)nc(N)n1 , please look it up.
< 200 nM

Lab note: need IC50 with MTH1 (Homo sapiens) for entry Cc1cccc(-c2cc(NCCCCCNC(=O)OC(C)(C)C)nc(N)n2)c1C , please look it up.
< 200 nM

Lab note: need IC50 with MTH1 (Homo sapiens) for entry CNc1cc(-c2cc(C)c(F)cc2C)nc(N)n1 , please look it up.
< 200 nM

Lab note: need IC50 with MTH1 (Homo sapiens) for entry Cc1cccc(-c2cc(NC3CC3)nc(N)n2)c1C , please look it up.
< 200 nM

Lab note: need IC50 with MTH1 (Homo sapiens) for entry CNc1cc(-c2cc(Cl)c(Cl)cc2C)nc(N)n1 , please look it up.
< 200 nM

Lab note: need IC50 with MTH1 (Homo sapiens) for entry CCCCCNc1cc(-c2cccc(Cl)c2Cl)nc(N)n1 , please look it up.
< 200 nM

Lab note: need IC50 with MTH1 (Homo sapiens) for entry Cc1c(Cl)cccc1-c1cc(NCCc2ccc(Cl)c(Cl)c2)nc(N)n1 , please look it up.
< 200 nM

Lab note: need IC50 with MTH1 (Homo sapiens) for entry Cc1cccc(-c2cc(NCCNc3ccc(Cl)nn3)nc(N)n2)c1C , please look it up.
< 200 nM

Lab note: need IC50 with MTH1 (Homo sapiens) for entry COc1ccc(NCCNc2cc(-c3cccc(C)c3C)nc(N)n2)cc1S(=O)(=O)O , please look it up.
< 200 nM

Lab note: need IC50 with MTH1 (Homo sapiens) for entry C=CC(=O)Nc1cccc(-c2cc(NC)nc(N)n2)c1C , please look it up.
< 200 nM

Lab note: need IC50 with MTH1 (Homo sapiens) for entry Nc1nc(NCC2CC2)cc(-c2cccc(Cl)c2Cl)n1 , please look it up.
< 200 nM

Lab note: need IC50 with MTH1 (Homo sapiens) for entry CNc1cc(-c2cccnc2C(F)(F)F)nc(N)n1 , please look it up.
< 200 nM

Lab note: need IC50 with MTH1 (Homo sapiens) for entry CC(=O)Nc1ccc(S(=O)(=O)NCCCNc2cc(-c3cccc(C)c3C)nc(N)n2)cc1 , please look it up.
< 200 nM

Lab note: need IC50 with MTH1 (Homo sapiens) for entry Cc1c(Cl)cccc1-c1cc(NCCc2ccc(O)c(O)c2)nc(N)n1 , please look it up.
< 200 nM

Lab note: need IC50 with MTH1 (Homo sapiens) for entry Cc1cccc(-c2cc(NCCc3ccc(Cl)cc3)nc(N)n2)c1C , please look it up.
< 200 nM

Lab note: need IC50 with MTH1 (Homo sapiens) for entry CNc1cc(-c2ccc(C(C)(C)C)cc2)nc(N)n1 , please look it up.
< 200 nM

Lab note: need IC50 with MTH1 (Homo sapiens) for entry Cc1c(Cl)cccc1-c1cc(NCCOc2ccc(C#N)cc2)nc(N)n1 , please look it up.
< 200 nM

Lab note: need IC50 with MTH1 (Homo sapiens) for entry Cc1cccc(-c2cc(NCC(C)Oc3cccnc3)nc(N)n2)c1C (centres unmarked) , please look it up.
< 200 nM

Lab note: need IC50 with MTH1 (Homo sapiens) for entry Cc1cc(-c2cc(NCCc3ccc(Cl)cc3)nc(N)n2)c(C)cc1F , please look it up.
< 200 nM

Lab note: need IC50 with MTH1 (Homo sapiens) for entry CCNc1cc(-c2ccccc2)nc(N)n1 , please look it up.
< 200 nM

Lab note: need IC50 with MTH1 (Homo sapiens) for entry Cc1cccc(-c2cc(NCCc3cccs3)nc(N)n2)c1C , please look it up.
< 200 nM

Lab note: need IC50 with MTH1 (Homo sapiens) for entry CNc1cc(-c2cc(F)cc(F)c2)nc(N)n1 , please look it up.
< 200 nM

Lab note: need IC50 with MTH1 (Homo sapiens) for entry Cc1cccc(-c2cc(NCCCNS(=O)(=O)c3ccc(S(C)(=O)=O)cc3)nc(N)n2)c1C , please look it up.
< 200 nM

Lab note: need IC50 with MTH1 (Homo sapiens) for entry Cc1c(Cl)cccc1-c1nc(N)nc2c1CCN2 , please look it up.
< 200 nM

Lab note: need IC50 with MTH1 (Homo sapiens) for entry Cc1ccc(Cl)cc1-c1cc(NCCc2ccc(S(N)(=O)=O)cc2)nc(N)n1 , please look it up.
< 200 nM

Lab note: need IC50 with MTH1 (Homo sapiens) for entry Cc1c(Cl)cccc1-c1cc(NC2CN(c3ccc(S(N)(=O)=O)cc3)C2)nc(N)n1 , please look it up.
2000 to 10000 nM

Lab note: need IC50 with MTH1 (Homo sapiens) for entry CNc1cc(-c2cc(OC)cc(Cl)c2Cl)nc(N)n1 , please look it up.
< 200 nM

Lab note: need IC50 with MTH1 (Homo sapiens) for entry Cc1c(Cl)cccc1-c1cc(NCC2CCOCC2)nc(N)n1 , please look it up.
< 200 nM

Lab note: need IC50 with MTH1 (Homo sapiens) for entry Cc1ccc(C)c(-c2cc(NCCc3ccc(Cl)cc3)nc(N)n2)c1 , please look it up.
< 200 nM

Lab note: need IC50 with MTH1 (Homo sapiens) for entry CNc1cc(-c2cnn(CCC(N)=O)c2)nc(N)n1 , please look it up.
< 200 nM

Lab note: need IC50 with MTH1 (Homo sapiens) for entry Cc1c(F)ccc(-c2cc(NCCc3ccc(S(N)(=O)=O)cc3)nc(N)n2)c1C , please look it up.
< 200 nM

Lab note: need IC50 with MTH1 (Homo sapiens) for entry CNc1cc(-c2ccc(OC)c(F)c2)nc(N)n1 , please look it up.
< 200 nM

Lab note: need IC50 with MTH1 (Homo sapiens) for entry CC1CC1Nc1cc(-c2cccc(Cl)c2Cl)nc(N)n1 (centres unmarked) , please look it up.
< 200 nM

Lab note: need IC50 with MTH1 (Homo sapiens) for entry Cc1c(C#N)cccc1-c1cc(NC2CC2)nc(N)n1 , please look it up.
< 200 nM

Lab note: need IC50 with MTH1 (Homo sapiens) for entry CNc1cc(-c2ccc(O)cc2)nc(N)n1 , please look it up.
< 200 nM

Lab note: need IC50 with MTH1 (Homo sapiens) for entry Cc1cccc(-c2cc(NCCc3c[nH]c4c(OCc5ccccc5)cccc34)nc(N)n2)c1C , please look it up.
< 200 nM

Recorded values, source patent US10632125B2.
